target.desc: UniProt:O15244
test: OCT2 activity: rhodamine 123 accumulation in HEK-OCT2 cells
condition.details: human, HEK-OCT2 cells, pH 7.4, probe rhodamine 123
reported.property: inhibition at 100 μM

> print(dat)
                                   compound     reported.property  recorded.result
1  CC1(C)[C@H](C=C(Cl)Cl)[C@H]1C(=O)O[C@@H](C#N)c1cccc(Oc2ccccc2)c1 [β-cypermethrin]  inhibition at 100 μM             ~25%
2  CC1(C)[C@H](C=C(Cl)Cl)[C@H]1C(=O)OCc1cccc(Oc2ccccc2)c1 [trans-permethrin]  inhibition at 100 μM             ~25%

* * *

target.desc: MATE1 (Homo sapiens)
Construct: host or cells: HEK293
test: MATE1 activity: TEA accumulation in HEK-MATE1 cells
Format: cell-based
condition.details: human; pyrethroid 100 μM; HEK-MATE1 cells, TEA, pH 8.4; read-out: inhibition of MATE1 activity
Protocol: The initial tested concentration of pyrethroids was 100 μM.
reported.property: inhibition at 100 μM

> print(dat)
                                   molecule           target.desc     reported.property  recorded.result
1  CC(C)=CC1C(C(=O)OCN2C(=O)C3=C(CCCC3)C2=O)C1(C)C (stereo not shown)  MATE1 (Homo sapiens)  inhibition at 100 μM            > 79%

* * *

target.desc: OCT2 (Homo sapiens, UniProt O15244)
Sequence (O15244 whole entry): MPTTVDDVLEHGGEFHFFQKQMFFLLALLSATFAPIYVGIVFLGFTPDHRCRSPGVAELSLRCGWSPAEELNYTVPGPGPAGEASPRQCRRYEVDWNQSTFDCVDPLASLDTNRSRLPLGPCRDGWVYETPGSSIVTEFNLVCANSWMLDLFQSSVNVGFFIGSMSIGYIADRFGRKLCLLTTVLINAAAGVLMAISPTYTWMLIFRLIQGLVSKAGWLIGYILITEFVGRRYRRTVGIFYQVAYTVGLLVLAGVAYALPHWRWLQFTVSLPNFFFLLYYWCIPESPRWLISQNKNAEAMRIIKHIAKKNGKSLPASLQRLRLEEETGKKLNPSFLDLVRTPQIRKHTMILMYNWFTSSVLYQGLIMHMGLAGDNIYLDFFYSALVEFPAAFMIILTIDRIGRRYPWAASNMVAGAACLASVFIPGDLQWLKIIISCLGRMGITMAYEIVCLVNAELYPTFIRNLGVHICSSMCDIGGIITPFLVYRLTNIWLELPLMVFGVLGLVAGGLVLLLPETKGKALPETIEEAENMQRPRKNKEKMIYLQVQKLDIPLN
test: OCT2 activity: rhodamine 123 accumulation in HEK-OCT2 cells
pIC50: −log10 of the molar value.
reported.property: pIC50

> print(dat)
                                   molecule                          target.desc  recorded.result
1  C=CCC1=C(C)C(OC(=O)C2C(C=C(C)C)C2(C)C)CC1=O (centres unmarked) [allethrin]  OCT2 (Homo sapiens, UniProt O15244)             4.37
2  CC(C)=CC1C(C(=O)OCN2C(=O)C3=C(CCCC3)C2=O)C1(C)C (centres unmarked) [tetramethrin]  OCT2 (Homo sapiens, UniProt O15244)             4.95

* * *

target.desc: MATE1 (Homo sapiens, UniProt Q96FL8)
Construct: host or cells: HEK293
Sequence (Q96FL8 1-570): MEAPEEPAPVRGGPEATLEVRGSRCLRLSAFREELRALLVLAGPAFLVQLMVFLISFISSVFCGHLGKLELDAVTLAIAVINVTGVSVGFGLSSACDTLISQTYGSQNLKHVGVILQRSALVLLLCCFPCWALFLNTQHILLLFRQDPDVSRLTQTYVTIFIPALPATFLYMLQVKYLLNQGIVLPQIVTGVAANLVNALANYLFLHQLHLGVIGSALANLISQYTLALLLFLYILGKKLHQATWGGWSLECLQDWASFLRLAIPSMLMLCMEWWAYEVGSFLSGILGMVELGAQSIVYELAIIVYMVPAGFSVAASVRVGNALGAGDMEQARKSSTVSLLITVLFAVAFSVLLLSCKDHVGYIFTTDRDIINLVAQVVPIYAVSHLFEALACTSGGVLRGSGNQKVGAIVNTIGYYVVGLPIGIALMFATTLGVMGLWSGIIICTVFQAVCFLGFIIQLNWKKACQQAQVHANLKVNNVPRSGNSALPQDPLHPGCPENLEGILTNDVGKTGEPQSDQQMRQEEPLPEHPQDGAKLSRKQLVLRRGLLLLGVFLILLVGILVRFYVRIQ
test: MATE1 activity: TEA accumulation in HEK-MATE1 cells
Type: cell-based
condition.details: human, pH 8.4
reported.property: inhibition at 100 μM

> print(dat)
                                   compound     reported.property  recorded.result
1  C=CCC1=C(C)C(OC(=O)C2C(C=C(C)C)C2(C)C)CC1=O (stereo not shown) [allethrin]  inhibition at 100 μM            > 79%

* * *

Measured IC50 by item
target.desc: MRP2 (Homo sapiens, UniProt Q92887)
Construct: multidrug resistance-associated protein (MRP) 2/ABCC2-expressing human hepatoma HuH-7 cells; endogenous in cells; host or cells: HuH-7 human hepatoma cells
Sequence (Q92887 whole entry): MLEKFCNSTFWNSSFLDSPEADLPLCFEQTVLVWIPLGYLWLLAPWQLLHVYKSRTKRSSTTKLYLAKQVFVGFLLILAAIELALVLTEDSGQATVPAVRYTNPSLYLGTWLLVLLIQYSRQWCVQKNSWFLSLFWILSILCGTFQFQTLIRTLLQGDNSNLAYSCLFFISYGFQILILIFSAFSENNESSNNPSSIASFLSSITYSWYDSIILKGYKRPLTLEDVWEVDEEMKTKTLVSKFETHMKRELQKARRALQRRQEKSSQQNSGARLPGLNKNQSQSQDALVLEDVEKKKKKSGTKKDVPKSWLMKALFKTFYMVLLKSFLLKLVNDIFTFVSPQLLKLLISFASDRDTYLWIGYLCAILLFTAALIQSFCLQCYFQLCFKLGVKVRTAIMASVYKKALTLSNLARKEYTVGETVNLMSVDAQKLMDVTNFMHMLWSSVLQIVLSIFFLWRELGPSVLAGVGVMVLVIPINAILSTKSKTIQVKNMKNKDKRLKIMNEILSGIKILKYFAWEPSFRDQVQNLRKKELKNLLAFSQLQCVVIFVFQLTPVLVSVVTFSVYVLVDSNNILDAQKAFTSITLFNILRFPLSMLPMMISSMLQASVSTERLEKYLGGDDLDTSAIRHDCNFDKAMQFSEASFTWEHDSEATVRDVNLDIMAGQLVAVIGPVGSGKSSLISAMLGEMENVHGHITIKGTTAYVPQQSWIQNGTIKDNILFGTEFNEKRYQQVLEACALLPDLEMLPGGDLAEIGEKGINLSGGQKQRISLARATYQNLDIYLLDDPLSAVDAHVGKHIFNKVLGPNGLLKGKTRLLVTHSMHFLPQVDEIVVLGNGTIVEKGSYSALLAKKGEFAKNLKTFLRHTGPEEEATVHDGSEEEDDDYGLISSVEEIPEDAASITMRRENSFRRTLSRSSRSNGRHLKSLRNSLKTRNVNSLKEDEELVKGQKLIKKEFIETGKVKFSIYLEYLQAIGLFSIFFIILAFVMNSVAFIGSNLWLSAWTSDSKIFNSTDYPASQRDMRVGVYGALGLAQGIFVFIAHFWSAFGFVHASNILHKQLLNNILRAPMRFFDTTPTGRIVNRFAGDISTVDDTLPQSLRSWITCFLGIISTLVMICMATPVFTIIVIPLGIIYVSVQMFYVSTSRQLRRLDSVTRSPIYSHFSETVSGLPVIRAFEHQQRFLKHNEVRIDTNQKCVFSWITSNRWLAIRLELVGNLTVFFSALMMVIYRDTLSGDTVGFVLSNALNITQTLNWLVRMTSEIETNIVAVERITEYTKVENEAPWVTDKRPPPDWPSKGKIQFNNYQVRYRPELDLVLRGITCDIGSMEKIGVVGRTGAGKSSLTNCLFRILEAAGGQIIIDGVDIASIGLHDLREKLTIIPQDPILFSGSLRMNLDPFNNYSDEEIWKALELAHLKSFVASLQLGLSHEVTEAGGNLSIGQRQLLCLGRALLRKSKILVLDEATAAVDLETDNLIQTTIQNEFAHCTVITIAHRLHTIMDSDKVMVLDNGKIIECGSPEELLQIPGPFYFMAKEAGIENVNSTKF
test: MRP2 activity: CF accumulation in HuH-7 cells
Format: cell-based
reported.property: IC50

> print(dat)
                                   compound  reported.property  recorded.result
1  CC(C)=CC1C(C(=O)OCN2C(=O)C3=C(CCCC3)C2=O)C1(C)C (centres unmarked)               IC50          65.5 µM
2  C=CCC1=C(C)C(OC(=O)C2C(C=C(C)C)C2(C)C)CC1=O (centres unmarked)               IC50          48.2 µM

* * *

target.desc: BCRP (Homo sapiens, UniProt Q9UNQ0)
Construct: expressed in transfected cells; host or cells: HEK293
test: BCRP activity: Hoechst 33342 retention in HEK-BCRP cells
Assay type: cell-based
condition.details: human; pyrethroid 100 μM; HEK-BCRP cells, Hoechst 33342; read-out: inhibition of BCRP activity
reported.property: inhibition at 90 min, 100 μM (%)

> print(dat)
                                   molecule  measurement.units  recorded.result
1  CC(C)=CC1C(C(=O)OCN2C(=O)C3=C(CCCC3)C2=O)C1(C)C (stereo not shown)                  %             67.1

* * *

target.desc: BCRP (Homo sapiens)
Sequence (Q9UNQ0 1-655): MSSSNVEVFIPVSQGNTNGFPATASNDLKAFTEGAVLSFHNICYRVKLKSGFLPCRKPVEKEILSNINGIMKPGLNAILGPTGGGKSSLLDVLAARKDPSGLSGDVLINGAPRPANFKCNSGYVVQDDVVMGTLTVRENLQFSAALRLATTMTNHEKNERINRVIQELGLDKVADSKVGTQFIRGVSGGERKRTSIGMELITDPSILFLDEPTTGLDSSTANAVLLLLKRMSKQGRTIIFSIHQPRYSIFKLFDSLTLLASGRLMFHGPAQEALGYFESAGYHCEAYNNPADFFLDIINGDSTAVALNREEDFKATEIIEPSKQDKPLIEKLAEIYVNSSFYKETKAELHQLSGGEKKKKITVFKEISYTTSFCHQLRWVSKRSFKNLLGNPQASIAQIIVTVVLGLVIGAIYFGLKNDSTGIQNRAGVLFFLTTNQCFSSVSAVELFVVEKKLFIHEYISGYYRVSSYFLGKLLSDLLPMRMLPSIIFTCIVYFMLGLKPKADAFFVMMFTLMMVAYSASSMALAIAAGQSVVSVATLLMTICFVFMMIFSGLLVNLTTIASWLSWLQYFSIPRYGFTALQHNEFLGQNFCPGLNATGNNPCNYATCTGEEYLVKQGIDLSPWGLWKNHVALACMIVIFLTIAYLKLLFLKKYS
test: BCRP activity: Hoechst 33342 retention in HEK-BCRP cells
pIC50: −log10 of the molar value.
Measured pIC50 by item
reported.property: pIC50

> print(dat)
                                   compound  reported.property  recorded.result
1  CC(C)=CC1C(C(=O)OCN2C(=O)C3=C(CCCC3)C2=O)C1(C)C (centres unmarked) [tetramethrin]              pIC50             4.14
2  C=CCC1=C(C)C(OC(=O)C2C(C=C(C)C)C2(C)C)CC1=O (centres unmarked) [allethrin]              pIC50             4.37

* * *

Measured inhibition at 100 μM by item
target.desc: OCT1 (Homo sapiens)
Sequence (O15245 whole entry): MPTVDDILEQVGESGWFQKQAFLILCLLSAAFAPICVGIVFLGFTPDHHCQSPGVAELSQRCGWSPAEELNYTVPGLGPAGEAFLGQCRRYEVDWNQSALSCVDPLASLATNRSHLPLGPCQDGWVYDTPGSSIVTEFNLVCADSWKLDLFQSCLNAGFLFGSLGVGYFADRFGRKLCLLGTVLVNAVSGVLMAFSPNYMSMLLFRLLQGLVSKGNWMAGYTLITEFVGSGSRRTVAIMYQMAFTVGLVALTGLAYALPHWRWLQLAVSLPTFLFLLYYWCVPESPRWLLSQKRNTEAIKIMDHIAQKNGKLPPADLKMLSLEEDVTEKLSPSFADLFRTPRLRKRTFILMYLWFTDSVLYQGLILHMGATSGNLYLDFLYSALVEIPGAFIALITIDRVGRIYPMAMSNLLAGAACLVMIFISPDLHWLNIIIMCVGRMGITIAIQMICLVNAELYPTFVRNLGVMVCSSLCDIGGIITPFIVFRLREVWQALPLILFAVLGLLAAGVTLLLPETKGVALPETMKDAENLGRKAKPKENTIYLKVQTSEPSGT
test: in vitro
condition.details: human, pH 7.4
reported.property: inhibition at 100 μM

> print(dat)
                                   molecule     reported.property  recorded.result
1  C=CCC1=C(C)C(OC(=O)C2C(C=C(C)C)C2(C)C)CC1=O (centres unmarked)  inhibition at 100 μM            87.9%
2  CC1(C)C(C(=O)OC(C#N)c2cccc(Oc3ccccc3)c2)C1(C)C (centres unmarked)  inhibition at 100 μM    30.1 to 48.8%
3  CC(C)=CC1C(C(=O)OCN2C(=O)C3=C(CCCC3)C2=O)C1(C)C (centres unmarked)  inhibition at 100 μM            73.8%
4  CC1(C)[C@H](C(=O)O[C@H](C#N)c2cccc(Oc3ccccc3)c2)[C@@H]1/C=C(\Cl)C(F)(F)F (racemic)  inhibition at 100 μM    30.1 to 48.8%
5  Cc1c(F)c(F)c(COC(=O)[C@@H]2[C@H](/C=C(\Cl)C(F)(F)F)C2(C)C)c(F)c1F (racemic)  inhibition at 100 μM    30.1 to 48.8%
6  CC(C)=CC1C(C(=O)OCc2coc(Cc3ccccc3)c2)C1(C)C (centres unmarked)  inhibition at 100 μM            48.8%
7  CC1(C)[C@H](C=C(Cl)Cl)[C@H]1C(=O)OCc1cccc(Oc2ccccc2)c1 [trans-permethrin]  inhibition at 100 μM    30.1 to 48.8%
8  CC1(C)[C@H](C(=O)O[C@H](C#N)c2cccc(Oc3ccccc3)c2)[C@@H]1C=C(Br)Br  inhibition at 100 μM    30.1 to 48.8%
